- EXPERIMENT NOTES: Primary qHTS for delayed death inhibitors of the malarial parasite plastid, 96 hour incubation
- CONDITIONS: P. falciparum luciferase reporter growth; series mostly up to 28.7 µM
In all, about 320,000 compounds went through this assay and about 22,000 (6.9%) were called active. About 27% were inconclusive and are not listed. Calls come from the whole dose curve; as a rule, active = well fitted inhibition curve with a large enough effect; inconclusive = small, poorly fitted or top-dose-only effect, or another doubt; inactive = no such curve, though single readings can be large or run the other way. The sample as a whole holds a higher share of actives than the screen did.
Field 'call' accepts active, inactive

Which outcome was entered for the compound COc1ccc(/C=C(\C#N)C(=O)NCCCn2ccnc2)cc1 in this test? inactive

Identify the outcome logged in this assay for the compound shown: CSc1nnc2ccc(-c3ccc(C)cc3)nn12 inactive

Please state the recorded outcome for this compound: Cc1[nH]n(C(N)=S)c(=O)c1N=Nc1ccc(Cl)cc1Cl inactive

Lab log entry: CCOc1cccc(SCc2noc(C(=O)NC(C)C)c2C(=O)O)c1 — outcome as called in the assay? inactive

Dear all, I need the recorded test outcome for O=C(NCc1ccccc1)c1ccc(CNc2c(N3CCCC3)c(=O)c2=O)cc1 , thank you. inactive

Any idea what this test logged for Cc1cc(C(=O)NC2CC(C)(C)Cc3c2cnn3-c2ccccc2)n[nH]1 (stereo not drawn) ? inactive

Could you check what this test reported for Cc1[nH]c2ccccc2c1C(=O)CN1CCCC(C)C1 (stereo not drawn) ? inactive

What call does the record list for CC[C@H](C)C(=O)N[C@H]1CCCN1C(=O)/C=C/c1ccccc1 ? inactive

Status in this test for Cc1cc(C)n2nc(C(=O)OCC(=O)N(CCC#N)c3ccc(F)cc3)nc2n1 ? inactive

Hey, what did the test say about COc1cccc(-c2nn(-c3ccccc3)cc2/C=C(\C#N)C(=O)NCCCn2ccnc2)c1 ? active

Test call, this compound: CSc1nc(-c2ccco2)nn1C(=O)c1ccccc1Cl inactive

Entry Cc1coc2c(O)cc3c(c12)OC1(N2CCCCC2)C(=O)NCCCC31 (stereo not drawn) : call = ? active

Fill in: this test's call for CNC(=O)CSc1nnnn1-c1ccc(C)cc1C is ___ inactive

Which result was noted for this compound in the test: O=C(Nc1ccc(Br)cc1)c1cc(S(=O)(=O)Nc2ccccn2)ccc1Cl inactive

Assay outcome for Cn1c(Nc2cccc(Cl)c2)nc2ccccc21 : what was it? inactive

How was Cc1ccc(C(=O)O/N=C(\N)c2ccccn2)cc1Cl classified in this test? inactive

Any idea what this test logged for Cn1cc(Cl)c(C(=O)NNC(=S)Nc2cccc(Cl)c2)n1 ? inactive

What call does the record list for Cc1ccc(Cl)cc1NC(=S)N(CCN(C)C)Cc1cccs1 ? inactive

What did this assay record as the result for CC(=O)c1ccc(N2CCN(C(=O)CCNC(=O)Cn3ccc4ccccc4c3=O)CC2)cc1 ? inactive

Tell me the assay call for CCc1noc(C)c1C(=O)N1CCN(S(=O)(=O)c2cccc(C(F)(F)F)c2)CC1 please. inactive

Test call for this compound, please: Cc1c(C(=O)Nc2cccc(Cl)c2)cn2c(nc3ccccc32)c1C#N active

Please share the test call associated with O=C(Nc1ccccc1C(=O)O)c1ccc(N2C(=O)C3CC=CCC3C2=O)cc1 (stereo not drawn) . inactive

# fetch the recorded call for COc1cc(OC)cc(C(=O)NCCCn2ccnc2)c1 here inactive

* * *

- EXPERIMENT NOTES: Primary qHTS for delayed death inhibitors of the malarial parasite plastid, 96 hour incubation
- CONDITIONS: P. falciparum luciferase reporter growth; series mostly up to 28.7 µM
In all, about 320,000 compounds went through this assay and about 22,000 (6.9%) were called active. About 27% were inconclusive and are not listed. Calls follow the shape of the dose curve; as a rule, active = well fitted inhibition curve with a large enough effect; inconclusive = small, poorly fitted or top-dose-only effect, or another doubt; inactive = no such curve, though single readings can be large or run the other way. Many of the other results were omitted from the sample, so actives are more common in it than they were.
// classify into active, inactive

Hey, what did the test say about CCOc1ccc(NS(=O)(=O)c2ccc(C(=O)NCC(c3ccccc3OC)N3CCCC3)cc2)cc1 (stereo unspecified) ? active

Assay outcome for CC1(C)CC(=O)c2ccc(O)cc2O1 : what was it? inactive

Short answer needed: outcome of this test for Cc1ccc(NC(=O)COc2ccc(-n3ccnc3)cc2)cc1Cl ? active

So what was the verdict on CCOc1ccc(S(=O)(=O)Nc2ccc(S(=O)(=O)Nc3cc(OC)ccc3OC)cc2)cc1 in this test? inactive

Entry O=C(COc1ccc(Cl)cc1)Nc1ccc2c(c1)OCO2 : call = ? inactive

Tell me the recorded outcome of this test for O=S(=O)(Nc1cccc(Oc2ccc(Cl)cc2)n1)c1ccc(F)cc1 . inactive

Could you please tell me the result logged for CCOc1ccc(S(=O)(=O)Nc2ccc(C(=O)NCCCN3CCCC3=O)cc2)cc1 in this assay? inactive

Which result was noted for this compound in the test: Cc1ccc(-n2c(C)nnc2SCC(=O)NC2CC2)cc1 inactive

Please share the test call associated with COc1ccc(CNC(=O)Cc2ccc(-c3ccccc3)cc2)cc1OC . inactive

# lookup: test call for Cc1ccc(NC(=O)COc2ccc(/C=N\NC(=O)c3cccnc3)cc2)cc1C inactive

// param item: O=C(NCC1(N2CCCCC2)CCCCC1)c1ccc(NS(=O)(=O)c2ccc(F)cc2)cc1 ; yields the recorded call active

Could you please tell me the result logged for COC(=O)c1ccc(C(NC(=O)OCc2ccccc2)/C(C)=C/[C@@H](C)C(=O)NCc2ccc(OC)c(OC)c2)cc1 (stereo partly specified) in this assay? active

Record lookup: outcome of this test for COc1ccc(NC(=O)CN(C)C(=O)c2n[nH]c3ccccc23)cc1 ? inactive

Each compound tested received a call. Report the one for COc1ccc(C(CNC(=O)c2ccc(S(=O)(=O)Nc3ccccc3F)cc2)N(C)C)cc1 (stereo unspecified) . inactive

State the result this test recorded for O=C(NCc1ccccc1CN1CCCC1)c1cccc(S(=O)(=O)Nc2ccc(F)cc2)c1 . active

Just curious, what result did CCS(=O)(=O)c1ccc(-c2cccc(NC(=O)c3ccc(Br)o3)c2)nn1 get here? inactive

Hi team, can someone confirm the assay call for O=C(NCC1CCCO1)c1ccc(S(=O)(=O)Nc2ccc(F)cc2)cc1 (stereo unspecified) ? inactive

Answer briefly: the call reported for COc1ccccc1C(CNC(=O)c1cccc(NS(=O)(=O)c2ccc(Br)cc2)c1)N(C)C (stereo unspecified) in this assay. active

Identify the outcome logged in this assay for the compound shown: CCN1CCCC1CNC(=O)c1cc2cc(OC)c(OC)cc2[nH]1 (stereo unspecified) inactive

Hi team, can someone confirm the assay call for FC(F)(F)c1cccc(Cc2noc(CN3CCC(N4CCCCC4)CC3)n2)c1 ? inactive

Name the outcome recorded for Cc1nc2ccccc2n1CC(=O)N/N=C/c1cccnc1 in the assay. inactive

* * *

- EXPERIMENT NOTES: Primary qHTS for delayed death inhibitors of the malarial parasite plastid, 96 hour incubation
- CONDITIONS: P. falciparum luciferase reporter growth; series mostly up to 28.7 µM
The campaign covered roughly 320,000 compounds. About 22,000 (6.9%) were called active. About 27% were inconclusive and are not listed. Calls follow the shape of the dose curve; as a rule, active = well fitted inhibition curve with a large enough effect; inconclusive = small, poorly fitted or top-dose-only effect, or another doubt; inactive = no such curve, though single readings can be large or run the other way. This excerpt belongs to a sample that is enriched for actives.
The categories you may choose from are active, inactive

Hey, what did the test say about COC(=O)C1=C(O)/C(=C/c2ccc(OCC(=O)Nc3ccccc3)cc2)N=C1C ? inactive

Just curious, what result did O=C(CSCc1ccccc1)Nc1ccccc1 get here? inactive

Entry CCCCC(=O)Nc1nc(C)c(-c2csc(Nc3ccc(Cl)cc3)n2)s1 : call = ? active

For this molecule, state the assay outcome: CCOC(=O)c1ccccc1NC(=O)COC(=O)C(Cc1c[nH]c2ccccc12)NC(C)=O (stereo not given) inactive

Look up the recorded call for Cc1ccc(S(=O)(=O)Oc2ccc(/C=N/NC(=O)c3ccncc3)cc2)cc1 in this test. inactive

Status in this test for COc1ccccc1OCCNC(=O)C(CCSC)NC(=O)COc1ccccc1 (stereo not given) ? inactive

Name the outcome recorded for Cc1ccc(Cl)c(OCC(=O)N(C)CC(=O)Nc2ccc(N3CCOCC3)cc2)c1 in the assay. inactive

State the result this test recorded for O=C(CNC(=O)c1ccccc1F)c1ccc(Br)cc1 . inactive

Identify the outcome logged in this assay for the molecule shown: CCCCCCC(=O)Nc1nc(C)c(-c2csc(Nc3cc(Cl)ccc3OC)n2)s1 active

Please indicate how the test categorized CCNC(=O)Nc1ccc(S(=O)(=O)Nc2cnc(C)nc2C)cc1 . inactive

// outcome(item) with item = COc1ccc(OC)c(Nc2nc(-c3ccc(O)c(O)c3)cs2)c1 inactive

For CCSCc1nc(N)nc(NCCc2ccccc2)n1 , what call appears in the results of this test? inactive

Just curious, what result did Cc1ccc(OCc2nc3ccccc3n2C)cc1 get here? inactive

Test call, this molecule: O=C(CNC(=O)Cc1ccccc1)N=Nc1c(O)[nH]c2ccc(Br)cc12 inactive

What outcome does the record of this test show for Cc1ccnc(N2C(=O)c3ccc([N+](=O)[O-])cc3C2=O)c1 ? inactive

What was the test verdict on CCC(C(=O)NCc1cccnc1)n1nc(C)c2sc3ccccc3c2c1=O (stereo not given) ? inactive

What did the test return for Cc1ccc(-c2csc(SCC(=O)Nc3cc(C)on3)n2)cc1 ? inactive

Returns: the outcome recorded for Cc1nc(C)c(-c2csc(NCCc3ccccc3)n2)s1 in this assay. inactive

Could you please tell me the result logged for COc1cccc(NC(=O)c2cc(S(=O)(=O)N3CCc4ccccc43)cn2C)c1 in this assay? inactive

Answer briefly: the call reported for COc1ccc(-c2noc(CNC(=O)C(C)Oc3ccccc3)n2)cc1 (stereo not given) in this assay. active

// outcome(item) with item = Cc1cc(NC(=O)CSCc2nc(-c3cccc(Cl)c3)oc2C)no1 active

# fetch the recorded call for Cc1ccc(S(=O)(=O)NCC2CCC(C(=O)N3CCOCC3)CC2)cc1 (stereo not given) here inactive

Hey, what did the test say about N#CCC(=O)Nc1ccc(C(=O)OCC(=O)Nc2sc3c(c2C#N)CCCC3)cc1 ? inactive

What did the test return for Cc1ccc(C(=O)COC(=O)CCN2C(=O)C3C4CCC(C4)C3C2=O)cc1C (stereo not given) ? inactive

What is the recorded call for this molecule in the test? CCN1C(=S)N[C@@H](c2cccc(C(F)(F)F)c2)C(C(=O)OC)=C1C inactive

What did this assay record as the result for CCCCN(C)CCC(=O)Nc1ccc(Cl)cc1 ? inactive

For CCCNC(=O)c1ccccc1NC(=O)CSCc1ccc(OC)cc1 , which call appears in the assay record? inactive

State the result this test recorded for CCCCCCC(=O)Nc1nc(C)c(-c2csc(Nc3cccc(OC)c3)n2)s1 . active

Which outcome did this test record for the molecule CN1CCN(C(=O)c2ccccc2NC(=O)COc2ccccc2Cl)CC1 ? inactive

Field: outcome | Entry: COc1ccc(OC)c(-c2csc(NC(=O)COC(=O)C3CC3)n2)c1 inactive

Recorded call for C/C(=N\NC(=O)Cc1ccccc1[N+](=O)[O-])c1cccnc1 ? inactive

# outcome recorded in this test, key = COc1ccc(CC(=O)NCC(=O)N/N=C/c2cc(Br)ccc2OC)cc1 inactive

What call does the record list for Cc1ccc(C)c(C(=O)COC(=O)Cn2[nH]c(=O)c3ccccc3c2=O)c1 ? inactive

Kindly provide the recorded test outcome for the following molecule: CN(C)CCCNC(=S)N1CCC(c2nc3ccccc3[nH]2)CC1 inactive

In this assay, the call recorded for O=C(CSc1cccc[n+]1[O-])c1ccc(-c2ccccc2)cc1 was what? active

Answer briefly: the call reported for O=C(OCC(=O)N1CCCC1=O)c1cc(S(=O)(=O)N2CCOCC2)ccc1Cl in this assay. inactive

Recorded call for O=S(=O)(c1ccc(-c2ccno2)s1)N1CCCCC1 ? inactive

Dear colleague, could you share the recorded outcome for CSc1ccccc1NC(=O)c1cnc2sc(C)cn2c1=O when you have a moment? inactive

I'd appreciate the recorded outcome for Cc1c(NC(=O)CSCc2ccccc2)cccc1C(=O)O from this test. active

Assay result, entry CCOc1ccc(CN2CCC(n3nccc3NC(=O)C3CC3)CC2)cc1CO — outcome? inactive

Test call for this molecule, please: Cc1ccc(OCCOCCOc2ccc(Br)cc2/C=N\NC(=O)c2ccncc2)cc1 active

Test call for this molecule, please: O=C(/C=C/c1ccccc1[N+](=O)[O-])OCC(=O)N1CCCC1 inactive

Kindly provide the recorded test outcome for the following molecule: Cc1ccc2c(c1)N(CC(=O)N1CCC(O)CC1)C(=O)CO2 inactive

# lookup: test call for C=Cn1cc[n+](CC(=O)c2ccc(OC)c(OC)c2)c1 inactive

Hello, I am checking results. What call was entered for CC(=O)OCCOCn1cnn2c(=O)c(Br)c(C)nc12 ? inactive
